Source: patent US9309242B2

Counter-ions that a name gives are not always drawn.
Readout Label: melting point (°C)
Numbers only; they are read as °C.

Kindly indicate its recorded melting point. Item: COc1cc(OC)c(F)c(N(CC(=O)NCCO)c2ccc3ncc(-c4cnn(C)c4)nc3n2)c1 258

Determine its reported melting point: COc1cc(OC)c(F)c(N(CC#N)c2ccc3ncc(-c4cnn(C)c4)nc3n2)c1F 250

Please give the documented melting point of COc1cc(OC)cc(N(Cc2ncc[nH]2)c2ccc3ncc(-c4cnn(C)c4)nc3n2)c1 (as salt: tartrate) [Compound 24] 176

Tell us which melting point value is on record for CNCCN(c1ccc2ncc(-c3cn[nH]c3)nc2n1)c1c(F)c(OC)cc(OC)c1F (as salt: HCl) (hydrate or solvate) 250

Fill in melting point for record COc1cc(OC)cc(N(CCS(C)(=O)=O)c2ccc3ncc(-c4cnn(CCS(C)(=O)=O)c4)nc3n2)c1 172

Kindly indicate its recorded melting point. Item: COc1cc(OC)c(Cl)c(/N=c2\ccc3ncc(-c4cnn(C)c4)nc3n2CC2CCC(=O)N2)c1Cl (single isomer, unassigned) 160

Dear colleague, please send me the reported melting point for COc1cc(OC)c(F)c(N(CCS(C)(=O)=O)c2ccc3ncc(-c4cnn(CCS(C)(=O)=O)c4)nc3n2)c1 when you can. 180

Return the recorded melting point value; entry: COc1cc(OC)cc(N(Cc2ncc[nH]2)c2ccc3ncc(-c4cnn(C)c4)nc3n2)c1 (as salt: phosphate) [Compound 24] 253

Hello, please tell me recorded melting point for this one: CNCCn1/c(=N/c2c(F)c(OC)cc(OC)c2F)ccc2ncc(-c3cnn(C)c3)nc21 174

Consider the compound COc1cc(OC)c(F)c(N(Cc2ncc[nH]2)c2ccc3ncc(-c4cnn(C)c4)nc3n2)c1 (as salt: phosphate) [Compound 23] and give its recorded melting point. 175

Give the reported melting point for this compound. COc1cc(OC)c(F)c(N(Cc2ncn(C3CNC3)n2)c2ccc3ncc(-c4cnn(C)c4)nc3n2)c1 126

Hello, please tell me recorded melting point for this one: COc1cc(/N=c2\ccc3ncc(-c4cnn(C)c4)nc3n2CC2CCOC2)c(F)c(OC)c1 (single isomer, unassigned) 80

Please indicate melting point recorded for COc1cc(OC)cc(N(CC2CCC(=O)N2)c2ccc3ncc(-c4cnn(C)c4)nc3n2)c1 (stereo not drawn) [Compound 49] 182

Please give the documented melting point of CNCCN(c1ccc2ncc(-c3cnn(C)c3)nc2n1)c1c(F)c(OC)cc(OC)c1F (hydrate or solvate) [Compound 3] 134

Specify reported melting point for the compound shown: COc1cc(/N=c2\ccc3ncc(-c4cnn(C)c4)nc3n2Cc2cc[nH]n2)c(F)c(OC)c1 (as salt: HCl) (hydrate or solvate) 130

# return recorded melting point for entry COc1cc(OC)cc(N(CCN2CCOCC2)c2ccc3ncc(-c4cnn(C)c4)nc3n2)c1 (as salt: hydrochloride) (hydrate or solvate) 143

Using known records, supply melting point for COc1cc(OC)c(F)c(/N=c2\ccc3ncc(-c4cnn(C)c4)nc3n2CC2CC2)c1F (single isomer, unassigned) 195

Specify reported melting point for the compound shown: COc1ccc(Cl)c(/N=c2\ccc3ncc(-c4cnn(C)c4)nc3n2CC2CCC(=O)N2)c1Cl (single isomer, unassigned) 183

Consider the compound CNCCN(c1ccc2ncc(-c3cnn(C)c3)nc2n1)c1c(F)c(OC)cc(OC)c1F [Compound 3] . State its measured melting point. 159

Indicate its recorded melting point; the compound in question is COc1cc(OC)c(F)c(N(Cc2ncc[nH]2)c2ccc3ncc(-c4cnn(C)c4)nc3n2)c1 (as salt: lactate) [Compound 23] 118

Dear colleague, please send me the reported melting point for COc1cc(OC)cc(N(Cc2nnco2)c2ccc3ncc(-c4cnn(C)c4)nc3n2)c1 when you can. 240

Quote melting point reported for COc1cc(OC)c(F)c(N(CCO)c2ccc3ncc(-c4cnn(CCO)c4)nc3n2)c1 please. 194

Please give the documented melting point of COc1cc(/N=c2\ccc3ncc(-c4cnn(C)c4)nc3n2CC2CCC(=O)N2)c(F)c(OC)c1 (stereo not drawn) 127
